Value source: paper PMC6332596

procedure-text: Pharmacokinetics of plasma chiauranib after single and multiple oral doses in patients (LC-MS/MS)
Format: in vivo, human
condition-label: human, plasma, oral, 65 mg, Day1, single dose 65 mg (n = 4); read-out: AUC0–24 h
metric-name: AUC(0-t) (ng·h/mL)
Report the figure in ng·h/mL without appending any unit label.

stdin: Any idea what AUC(0-t) was measured for "COc1ccc2c(Oc3ccc4c(C(=O)Nc5ccccc5N)cccc4c3)ccnc2c1" ?
stdout: 11000

###

procedure-text: Pharmacokinetics of plasma chiauranib after single and multiple oral doses in patients (LC-MS/MS)
Type: in vivo, human
condition-label: human, plasma, oral, 20 mg, Day1, single dose 20 mg (n = 6)
metric-name: Cmax (ng/mL)
API: value field is a number in ng/mL; no unit string.

stdin: Name the reported Cmax value associated with the compound "COc1ccc2c(Oc3ccc4c(C(=O)Nc5ccccc5N)cccc4c3)ccnc2c1"
stdout: 354

###

procedure-text: Pharmacokinetics of plasma chiauranib after single and multiple oral doses in patients (LC-MS/MS)
Assay type: in vivo, human
condition-label: human, plasma, oral, 65 mg, Day1, single dose 65 mg (n = 4)
metric-name: Tmax

stdin: For the compound COc1ccc2c(Oc3ccc4c(C(=O)Nc5ccccc5N)cccc4c3)ccnc2c1 [chiauranib] , what Tmax is on record?
stdout: 1.5 h

###

procedure-text: Pharmacokinetics of plasma chiauranib after single and multiple oral doses in patients (LC-MS/MS)
Format: in vivo, human
condition-label: human, plasma, oral, 10 mg, Day28, multiple dose 10 mg once daily (n = 2)
metric-name: Cmax (µg/mL)
Express your answer in µg/mL, writing the number without its unit.

stdin: For "COc1ccc2c(Oc3ccc4c(C(=O)Nc5ccccc5N)cccc4c3)ccnc2c1" , what is its reported Cmax?
stdout: 0.312

###

procedure-text: Pharmacokinetics of plasma chiauranib after single and multiple oral doses in patients (LC-MS/MS)
Type: in vivo, human
condition-label: human, plasma, oral, 35 mg, Day1, single dose 35 mg (n = 3); read-out: AUC0–24 h
metric-name: AUC(0-t) (ng·h/mL)
Write the value in ng·h/mL as a bare number.

stdin: Which AUC(0-t) reading was recorded for the compound "COc1ccc2c(Oc3ccc4c(C(=O)Nc5ccccc5N)cccc4c3)ccnc2c1" ?
stdout: 5760

###

procedure-text: Pharmacokinetics of plasma chiauranib after single and multiple oral doses in patients (LC-MS/MS)
Format: in vivo, human
condition-label: human, plasma, oral, 20 mg, Day28, multiple dose 20 mg once daily (n = 6); read-out: AUC0–24 h
metric-name: AUC(0-t) (ng·h/mL)
Numbers only; they are read as ng·h/mL.

stdin: AUC(0-t) for "COc1ccc2c(Oc3ccc4c(C(=O)Nc5ccccc5N)cccc4c3)ccnc2c1" ?
stdout: 6180

###

procedure-text: Pharmacokinetics of plasma chiauranib after single and multiple oral doses in patients (LC-MS/MS)
Type: in vivo, human
condition-label: human, plasma, oral, 10 mg, Day1, single dose 10 mg (n = 2)
metric-name: Cmax (ng/mL)
Just the number in ng/mL, nothing appended.

stdin: Which Cmax reading was recorded for the compound "COc1ccc2c(Oc3ccc4c(C(=O)Nc5ccccc5N)cccc4c3)ccnc2c1" ?
stdout: 201

###

procedure-text: Pharmacokinetics of plasma chiauranib after single and multiple oral doses in patients (LC-MS/MS)
Format: in vivo, human
condition-label: human, plasma, oral, 10 mg, Day28, multiple dose 10 mg once daily (n = 2)
metric-name: Tmax (h)
Hi! Could you send only the number? It should be in h, unit omitted.

stdin: Please look up its Tmax: "COc1ccc2c(Oc3ccc4c(C(=O)Nc5ccccc5N)cccc4c3)ccnc2c1"
stdout: 2

###

procedure-text: Pharmacokinetics of plasma chiauranib after single and multiple oral doses in patients (LC-MS/MS)
Format: in vivo, human
condition-label: human, plasma, oral, 50 mg, Day1, single dose 50 mg (n = 3)
Description: Three milliliters of venous blood samples was drawn into heparinized tubes before drug administration as well as at 1, 2, 4, 6, 8, 12, 24, 48, 72, 96, 120, and 144 h post-dose. […] Three milliliters of venous blood samples was drawn into heparinized tubes before administration as well as at 1, 2, 4, 8, 12, and 24 h post the oral dose on day 28. […] Samples were centrifuged immediately at 3600×g for 10 min at 4 °C, and the plasma fractions were separated and stored at − 20 °C until analysis. […]
metric-name: Cmax
Note: a bare number is incomplete; add the unit.

stdin: Record request: Cmax value, item "COc1ccc2c(Oc3ccc4c(C(=O)Nc5ccccc5N)cccc4c3)ccnc2c1"
stdout: 756 ng/mL

###

procedure-text: Pharmacokinetics of plasma chiauranib after single and multiple oral doses in patients (LC-MS/MS)
Assay type: in vivo, human
condition-label: human, plasma, oral, 10 mg, Day28, multiple dose 10 mg once daily (n = 2); read-out: AUC0–24 h
metric-name: AUC(0-t) (ng·h/mL)
The reply should contain only the number, in ng·h/mL.

stdin: If you can, please state the reported AUC(0-t) value of COc1ccc2c(Oc3ccc4c(C(=O)Nc5ccccc5N)cccc4c3)ccnc2c1 [chiauranib] .
stdout: 4180

###

procedure-text: Pharmacokinetics of plasma chiauranib after single and multiple oral doses in patients (LC-MS/MS)
Format: in vivo, human
condition-label: human, plasma, oral, 35 mg, Day28, multiple dose 35 mg once daily (n = 3); read-out: AUC0–24 h
metric-name: AUC(0-t) (ng·h/mL)
Please give a number only; it is taken to be in ng·h/mL.

stdin: // lookup AUC(0-t) for "COc1ccc2c(Oc3ccc4c(C(=O)Nc5ccccc5N)cccc4c3)ccnc2c1"
stdout: 11800

###

procedure-text: Pharmacokinetics of plasma chiauranib after single and multiple oral doses in patients (LC-MS/MS)
Format: in vivo, human
condition-label: human, plasma, oral, 50 mg, Day28, multiple dose 50 mg once daily (n = 3)
metric-name: Cmax (ng/mL)
// note: answer is a bare numeric in ng/mL

stdin: Cmax for COc1ccc2c(Oc3ccc4c(C(=O)Nc5ccccc5N)cccc4c3)ccnc2c1 [chiauranib] ?
stdout: 1120

###

procedure-text: Pharmacokinetics of plasma chiauranib after single and multiple oral doses in patients (LC-MS/MS)
Type: in vivo, human
condition-label: human, plasma, oral; after first dose in run-in period, 10-65 mg; read-out: terminal half-life (t1/2) (converted)
metric-name: half-life (h)
Write it as a number; the unit h goes unstated.

stdin: Can you share its half-life? I mean this compound: "COc1ccc2c(Oc3ccc4c(C(=O)Nc5ccccc5N)cccc4c3)ccnc2c1"
stdout: 25.6

###

procedure-text: Pharmacokinetics of plasma chiauranib after single and multiple oral doses in patients (LC-MS/MS)
Format: in vivo, human
condition-label: human, plasma, oral, 20 mg, Day28, multiple dose 20 mg once daily (n = 6)
metric-name: Tmax (h)
Express it in h; write the number only.

stdin: Recorded Tmax of "COc1ccc2c(Oc3ccc4c(C(=O)Nc5ccccc5N)cccc4c3)ccnc2c1" , please.
stdout: 2

###

procedure-text: Pharmacokinetics of plasma chiauranib after single and multiple oral doses in patients (LC-MS/MS)
Format: in vivo, human
condition-label: human, plasma, oral, 35 mg, Day1, single dose 35 mg (n = 3); read-out: AUC0–144 h
metric-name: AUC(0-t) (ng·h/mL)
Expressed in ng·h/mL, but write only the number.

stdin: Value lookup for AUC(0-t); key = COc1ccc2c(Oc3ccc4c(C(=O)Nc5ccccc5N)cccc4c3)ccnc2c1 [chiauranib]
stdout: 11900

###

procedure-text: Pharmacokinetics of plasma chiauranib after single and multiple oral doses in patients (LC-MS/MS)
Assay type: in vivo, human
condition-label: human, plasma, oral, 50 mg, Day28, multiple dose 50 mg once daily (n = 3); read-out: AUC0–24 h
metric-name: AUC(0-t)

stdin: Which AUC(0-t) is reported for this compound? COc1ccc2c(Oc3ccc4c(C(=O)Nc5ccccc5N)cccc4c3)ccnc2c1 [chiauranib]
stdout: 14500 ng·h/mL

###

procedure-text: Pharmacokinetics of plasma chiauranib after single and multiple oral doses in patients (LC-MS/MS)
Format: in vivo, human
condition-label: human, plasma, oral, 50 mg, Day1, single dose 50 mg (n = 3)
Protocol: Three milliliters of venous blood samples was drawn into heparinized tubes before drug administration as well as at 1, 2, 4, 6, 8, 12, 24, 48, 72, 96, 120, and 144 h post-dose. […] Three milliliters of venous blood samples was drawn into heparinized tubes before administration as well as at 1, 2, 4, 8, 12, and 24 h post the oral dose on day 28. […] Samples were centrifuged immediately at 3600×g for 10 min at 4 °C, and the plasma fractions were separated and stored at − 20 °C until analysis. […]
metric-name: Tmax (h)
Reply with just the number (in h).

stdin: # Tmax lookup, item "COc1ccc2c(Oc3ccc4c(C(=O)Nc5ccccc5N)cccc4c3)ccnc2c1"
stdout: 1

###

procedure-text: Pharmacokinetics of plasma chiauranib after single and multiple oral doses in patients (LC-MS/MS)
Assay type: in vivo, human
condition-label: human, plasma, oral, 50 mg, Day28, multiple dose 50 mg once daily (n = 3)
metric-name: Tmax (h)
Field format: number, assumed h, no unit text.

stdin: Please report the recorded Tmax for COc1ccc2c(Oc3ccc4c(C(=O)Nc5ccccc5N)cccc4c3)ccnc2c1 [chiauranib] .
stdout: 2
